biological target: CYP1A2 (Homo sapiens); test: Inhibition of human CYP1A2 at 10 uM relative to control; type: ADME
Sequence (P05177 whole entry): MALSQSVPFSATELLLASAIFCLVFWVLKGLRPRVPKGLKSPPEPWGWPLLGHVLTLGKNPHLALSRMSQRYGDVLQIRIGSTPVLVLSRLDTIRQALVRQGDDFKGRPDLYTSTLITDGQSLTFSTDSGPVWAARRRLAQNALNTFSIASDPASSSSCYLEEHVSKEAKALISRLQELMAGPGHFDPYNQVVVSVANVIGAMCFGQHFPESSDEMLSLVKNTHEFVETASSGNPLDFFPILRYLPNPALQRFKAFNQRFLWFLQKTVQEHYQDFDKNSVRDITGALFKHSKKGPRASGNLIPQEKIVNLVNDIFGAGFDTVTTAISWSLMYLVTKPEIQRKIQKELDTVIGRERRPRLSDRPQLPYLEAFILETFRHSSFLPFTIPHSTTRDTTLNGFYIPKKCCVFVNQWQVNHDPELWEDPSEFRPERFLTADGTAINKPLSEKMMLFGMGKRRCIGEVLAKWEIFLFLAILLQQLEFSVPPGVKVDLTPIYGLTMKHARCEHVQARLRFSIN
RECORDED_ENDPOINT: inhibition at 10 µM

# input Annotate the compound Cc1noc(C)c1-c1ccc2nc(-c3cnn(CC(C)(C)O)c3)nc(N3CCOC[C@@H]3c3ccccc3)c2c1 with its measured inhibition at 10 µM.
# output < 50%

----------
target: Bromodomain testis-specific protein (Homo sapiens, UniProt Q58F21); assay: Binding affinity to human partial length BRDT (BD1) (N21 to E137 residues) expressed in bacterial expression system by BROMOscan assay
RECORDED_ENDPOINT: Kd (µM)
Numeric only. Scale: µM

# input System Bromodomain testis-specific protein (Homo sapiens, UniProt Q58F21). Read-out Kd. Item Cc1noc(C)c1-c1ccc2nc(-c3cnn(CC(C)(C)O)c3)nc(N3CCOC[C@@H]3c3ccccc3)c2c1 . Report value.
# output 0.076

----------
system: Kasumi 1; experiment: Antitumor activity against human Kasumi-1 cells xenografted in CB17 SCID mouse assessed as tumor weight at 10 mg/kg, po QD for 29 days (reference value: 2.1+/- 0.3 g); type: functional; conditions: time 29 day
RECORDED_ENDPOINT: Activity (g)
Provide the reading as a plain figure in g.

In the examples that follow, each entry is paired with its recorded Activity.
[
  {
    "CHEM_SMILES": "Cc1cc(-c2ccc3nc(-c4cnn(CC(C)(C)O)c4)nc(N4CCOC[C@@H]4c4ccccc4)c3c2)cn(C)c1=O",
    "Activity / g": 0.73
  },
  {
    "CHEM_SMILES": "CCNC(=O)C[C@@H]1N=C(c2ccc(Cl)cc2)c2cc(OC)ccc2-n2c(C)nnc21",
    "Activity / g": 0.3
  },
  {
    "CHEM_SMILES": "Cc1noc(C)c1-c1ccc2nc(-c3cnn(CC(C)(C)O)c3)nc(N3CCOC[C@@H]3c3ccccc3)c2c1",
    "Activity / g": 1.22
  }
]

Now look at this entry.
# input Give the reported value of Activity for this record: Cc1cc(-c2ccc3nc(-c4cnn(CC(C)(C)O)c4)nc(N4CCOC[C@@H]4c4ccc(F)cc4)c3c2)cn(C)c1=O
# output 1.24

----------
Measured Vd values are reported for all entries that follow.
experiment: Volume of distribution at steady state in CD-1 mouse at 2 mg/kg, iv; assay type: ADME, organism-based; details: in vivo, read-out: Vdss
Response body: numeric value in L/kg, unit text excluded.

[
  {
    "CHEM_SMILES": "Cn1cc(-c2ccc3nc(-c4cnn(CC(C)(C)O)c4)nc(N4CCOC[C@@H]4c4cccs4)c3c2)ccc1=O",
    "SCALE_UNIT": "L/kg",
    "Vd": 1.08
  }
]

# input Please list Vd recorded for the compound CC(=O)N1CCN(c2nc(-c3cnn(CC(C)(C)O)c3)nc3ccc(-c4c(C)noc4C)cc23)[C@@H](c2ccccc2)C1
# output 0.72

# input Look up and report measured Vd for this entry: Cc1noc(C)c1-c1ccc2nc(-c3cnn(CC(C)(C)O)c3)nc(N3CCOC[C@@H]3C3CC3)c2c1
# output 1.28

# input Tell me measured Vd for Cc1cc(-c2ccc3nc(-c4cnn(CC(C)(C)O)c4)nc(N4CCOC[C@@H]4c4ccc(F)cc4)c3c2)cn(C)c1=O please.
# output 1.08
